Values were extracted from paper PMC4393935.

Measured half-life accompanies every entry in the list below.
test: Pharmacokinetic study in C57BL/6 mice after oral and intravenous dosing, blood levels by LC-MS/MS; type: in vivo; conditions: male, C57BL/6, mouse, whole blood, iv, 4 mg/kg, IV, 4 mg/kg, blood, mean ± SD of five mice, read-out: T 1/2 (apparent terminal half-life)

[
  {
    "MOLECULE": "Nc1ncc(-c2ccc(C(=O)N3CCOCC3)cc2)cc1-c1ccc(C(F)(F)F)cc1 [Compound 1]",
    "MEASUREMENT KIND": "half-life",
    "OBSERVED VALUE": "40.8 to 52.2 min"
  }
]

Here is another molecule to look at.
Prompt: Query: half-life; subject: CNS(=O)(=O)c1ccc(-c2cnc(N)c(-c3ccc(C(F)(F)F)nc3)c2)cc1 [Compound 2]
Completion: 40.8 to 52.2 min

----------
assay: Pharmacokinetic study in C57BL/6 mice after oral and intravenous dosing, blood levels by LC-MS/MS; format: in vivo; conditions: male, mouse, whole blood, oral, 20 mg/kg, blood, mean ± SD of five mice, read-out: AUC0–∞ (total exposure) (converted)
MEASUREMENT KIND: AUC(0-inf) (µM·h)

[
  {
    "MOLECULE": "CNS(=O)(=O)c1ccc(-c2cnc(N)c(-c3ccc(C(F)(F)F)nc3)c2)cc1 [Compound 2]",
    "UNIT INFO": "µM·h",
    "AUC(0-inf)": 5.23
  },
  {
    "MOLECULE": "Nc1ncc(-c2ccc(C(=O)N3CCOCC3)cc2)cc1-c1ccc(C(F)(F)F)cc1 [Compound 1]",
    "UNIT INFO": "µM·h",
    "AUC(0-inf)": 5.99
  }
]

----------
assay: Pharmacokinetic study in C57BL/6 mice after oral and intravenous dosing, blood levels by LC-MS/MS; type: in vivo; details: male, C57BL/6, mouse, whole blood, po, 20 mg/kg, oral, 20 mg/kg, blood, read-out: time to maximum concentration
MEASUREMENT KIND: Tmax

Prompt: Query: Tmax; subject: CNS(=O)(=O)c1ccc(-c2cnc(N)c(-c3ccc(C(F)(F)F)nc3)c2)cc1
Completion: ≤ 30 min

----------
test: Pharmacokinetic study in C57BL/6 mice after oral and intravenous dosing, blood levels by LC-MS/MS; type: in vivo; details: male, C57BL/6, mouse, whole blood, iv, 4 mg/kg, IV, 4 mg/kg, blood, mean ± SD of five mice, read-out: C Max (maximum blood concentration)
MEASUREMENT KIND: Cmax (nM)

(a) CNS(=O)(=O)c1ccc(-c2cnc(N)c(-c3ccc(C(F)(F)F)nc3)c2)cc1
(b) Nc1ncc(-c2ccc(C(=O)N3CCOCC3)cc2)cc1-c1ccc(C(F)(F)F)cc1
Prompt: In the pair a and b , the larger recorded Cmax belongs to which? # answer = label of selected item
Completion: b

----------
assay: Pharmacokinetic study in C57BL/6 mice after oral and intravenous dosing, blood levels by LC-MS/MS; format: in vivo; settings: male, mouse, whole blood, IV, 4 mg/kg, mean ± SD of five mice, read-out: Vss (volume of distribution)
MEASUREMENT KIND: Vd (L/kg)

(I) Nc1ncc(-c2ccc(C(=O)N3CCOCC3)cc2)cc1-c1ccc(C(F)(F)F)cc1
(II) CNS(=O)(=O)c1ccc(-c2cnc(N)c(-c3ccc(C(F)(F)F)nc3)c2)cc1
Prompt: Please choose the item with the lower Vd value from this pair: I and II # answer = label of selected item
Completion: I
(I: 9.51 L/kg, II: 27 L/kg)

----------
experiment: Pharmacokinetic study in C57BL/6 mice after oral and intravenous dosing, blood levels by LC-MS/MS; type: in vivo; details: male, C57BL/6, mouse, whole blood, po, 20 mg/kg, oral, 20 mg/kg, blood, read-out: T Max
MEASUREMENT KIND: Tmax

[
  {
    "MOLECULE SMILES": "Nc1ncc(-c2ccc(C(=O)N3CCOCC3)cc2)cc1-c1ccc(C(F)(F)F)cc1",
    "Tmax": "≤ 1 h"
  }
]

Prompt: Query: Tmax; subject: CNS(=O)(=O)c1ccc(-c2cnc(N)c(-c3ccc(C(F)(F)F)nc3)c2)cc1
Completion: ≤ 1 h

----------
experiment: Pharmacokinetic study in C57BL/6 mice after oral and intravenous dosing, blood levels by LC-MS/MS; assay type: in vivo; conditions: male, C57BL/6, mouse, whole blood, po, 20 mg/kg, oral, 20 mg/kg, blood, mean ± SD of five mice, read-out: T 1/2 (apparent terminal half-life)
MEASUREMENT KIND: half-life

[
  {
    "MOLECULE SMILES": "Nc1ncc(-c2ccc(C(=O)N3CCOCC3)cc2)cc1-c1ccc(C(F)(F)F)cc1",
    "half-life": "2.5 to 3 h"
  }
]

Prompt: Query: half-life; subject: CNS(=O)(=O)c1ccc(-c2cnc(N)c(-c3ccc(C(F)(F)F)nc3)c2)cc1
Completion: 2.5 to 3 h

----------
test: Pharmacokinetic study in C57BL/6 mice after oral and intravenous dosing, blood levels by LC-MS/MS; format: in vivo; conditions: male, mouse, whole blood, IV, 4 mg/kg, blood, mean ± SD of five mice, read-out: AUC0–∞ (total exposure) (converted)
MEASUREMENT KIND: AUC(0-inf) (µM·h)

[
  {
    "MOLECULE": "CNS(=O)(=O)c1ccc(-c2cnc(N)c(-c3ccc(C(F)(F)F)nc3)c2)cc1 [Compound 2]",
    "UNIT INFO": "µM·h",
    "AUC(0-inf)": 1.75
  },
  {
    "MOLECULE": "Nc1ncc(-c2ccc(C(=O)N3CCOCC3)cc2)cc1-c1ccc(C(F)(F)F)cc1 [Compound 1]",
    "UNIT INFO": "µM·h",
    "AUC(0-inf)": 1.72
  }
]
